Values from ChEMBL document CHEMBL1287722

assay: Cytotoxicity against human CEM-SS cells by XTT assay; assay type: cell-based
Recorded Metric: CC50

>>> observed_value("CN(O)C(=O)c1cc2c(CN3CCNC(=O)C3)cn(Cc3ccc(F)cc3)c2cn1")
"> 100 µM"
>>> observed_value("CN(O)C(=O)c1cc2c(C(=O)NCCN3CCOCC3)cn(Cc3ccc(F)cc3)c2cn1")
"32 µM"
>>> observed_value("COCCOCc1cn(Cc2ccc(F)cc2)c2cnc(C(=O)N(C)O)cc12")
"> 100 µM"
>>> observed_value("CN(O)C(=O)c1cc2c(CN3CCC[C@@H]3C(N)=O)cn(Cc3ccc(F)cc3)c2cn1")
"> 100 µM"
>>> observed_value("COCCOCCCc1cn(Cc2ccc(F)cc2)c2cnc(C(=O)N(C)O)cc12")
"> 10 µM"
>>> observed_value("CC(C)NC(=O)c1cn(Cc2ccc(F)cc2)c2cnc(C(=O)N(C)O)cc12")
"> 100 µM"
>>> observed_value("CN(O)C(=O)c1cc2ccn(Cc3ccc(F)cc3F)c2cn1")
"200 µM"
>>> observed_value("CN(O)C(=O)c1cc2c(CCCO)cn(Cc3ccc(F)cc3)c2cn1")
"> 10 µM"
